Target: Aspartate--tRNA(Asp/Asn) ligase (Mycobacterium tuberculosis (strain ATCC 25618 / H37Rv))
Assay: Assay for Asp RNA synthetase-1 from Mycobacterium tuberculosis
Type: functional
Parameters: scale not given: in the data most compounds retested in dose-response had high values
Details: 30 µM
REPORTED_PROPERTY: Percent Effect (%)
Express it in %; write the number only.

Name the recorded Percent Effect for CCN1CCN(c2ccc(F)cc2C(C)NCc2ccncc2)CC1 (configuration not stated) .
-0.494

Fill blank: measured Percent Effect of the molecule Cc1nc(-c2ccsc2)ccc1C(=O)NCCC1CCCO1 (configuration not stated) is ____.
0.767

Item O=C(COCC1CC1)N1CCCC(n2cncn2)C1 (configuration not stated) has what recorded Percent Effect?
-4.03

Given the molecule O=C(NCCc1ccncc1)C1CCN(Cc2ccco2)CC1 , what is its reported Percent Effect?
-3.6

Give the measured Percent Effect of COCCN1CCN(Cc2cccc(C(=O)N(C)C)c2)CC1C (configuration not stated) .
1.34

Report Percent Effect for O=C(NCCc1ccc(Cl)s1)NCc1nnc2n1CCC2 please.
2.25

Sample c1ccc(CCNC2CCc3ncnn3C2)nc1 (configuration not stated) — what was its Percent Effect?
5.83

GET /values?readout=Percent Effect&item= Cc1nnc(N2C[C@H](C(=O)NCC3CC3)[C@@H]3CCO[C@@H]3C2)s1
-0.219

So what's the measured Percent Effect for this one? COCC(=O)NCc1cc(=O)n2c(n1)CN(CC1CCOC1)CCC2 (configuration not stated)
-4.6

Given the molecule Cc1ccc(CC2CCCN2CC(=O)NCc2cccnc2)cc1 (configuration not stated) , what is its reported Percent Effect?
0.509

Please look up its Percent Effect: Cc1nn(C(C)C)c(C)c1NC(=O)c1ccccc1
1.73

Quick check: Percent Effect of CC(=O)c1ccc(C(=O)NCCCOC(C)c2ccccc2)s1 (configuration not stated) ?
-4.7
